Measurement Description: Absorption spectra obtained in toluene at room temperature
Format: physicochemical
Experimental Parameters: Table 1; in toluene at room temperature
Metric: Log ε (M^−1cm^−1) (Qy band)

cpd_smiles=CC(=O)c1cc2[n]3c1=CC1=NC(=Cc4ccc([n]4[Zn]3)C(c3ccc(C)cc3)=C3C=CC(=N3)C=2c2c(C)cc(C)cc2C)C(C)(C)C1 observed_result=4.75
cpd_smiles=CC(=O)c1cc2[nH]c1cc1nc(cc3ccc([nH]3)c(-c3ccc(C)cc3)c3nc(c2-c2c(C)cc(C)cc2C)C=C3)C(C)(C)C1 observed_result=4.67
cpd_smiles=Cc1ccc(C2=c3ccc4[n]3[Zn][n]3c(cc(Br)c3C=C3CC(C)(C)C(=N3)C=4)C(c3c(C)cc(C)cc3C)=C3C=CC2=N3)cc1 observed_result=4.65
cpd_smiles=CC(=O)c1cc2[n-]c1cc1nc(cc3ccc([n-]3)c(-c3ccc(C)cc3)c3nc(c2-c2c(C)cc(C)cc2C)C=C3)C(C)(C)C1.[Cu+2] observed_result=4.69

* * *

Measurement Description: Absorption spectra obtained in toluene at room temperature
Type: physicochemical
Experimental Parameters: Table 3; redshift relative to the parent chlorin (ZnC or Zn—M^10); toluene
From the text: Absorption Spectra. The spectral properties of interest in the chlorins include the position of the long-wavelength Qy transition, the intensity of the Qy transition, and the fluorescence quantum yield of the chlorin. The intensity of the Qy transition can be assessed by the measured molar absorption coefficient; however, comparisons of such values are somewhat unreliable given the experimental variability encountered upon handling small quantities of materials. […]
Metric: ΔνQy (cm⁻¹)

molecule="CC(=O)c1cc2[n]3c1C=C1CC(C)(C)C(=N1)C=c1cc(C#C[Si](C(C)C)(C(C)C)C(C)C)c([n]1[Zn]3)=CC1=NC(=C2c2c(C)cc(C)cc2C)C=C1 [ZnC-E^3M^10A^13]" observed_result=1160

I = Cc1cc(C)c(C2=c3cc(C#C[Si](C(C)C)(C(C)C)C(C)C)c4[n]3[Zn][n]3c(cc(C#C[Si](C(C)C)(C(C)C)C(C)C)c3C=C3C=CC2=N3)C=C2N=C(C=4)CC2(C)C)c(C)c1 [ZnC-E^3M^10E^13]
II = Cc1cc(C)c(C2=c3cc(C#C[Si](C(C)C)(C(C)C)C(C)C)c4[n]3[Zn][n]3c(ccc3C=C3N=C(C=4)CC3(C)C)C=C3C=CC2=N3)c(C)c1 [ZnC-M^10E^13]
Between I and II , which one shows the smaller ΔνQy number? Respond using the label that marks the chosen record.
II
(II: 530 cm⁻¹, I: 1020 cm⁻¹)
